- System: LNCaP tumor-transplanted mouse
- ASSAY_REMARKS: Internal radioactivity distribution using LNCaP tumor-transplanted mouse
- Assay type: in vivo
- CONDITION_PARAMETERS: 24 h after administration
Brain values by entry

{"COMPOUND": "O=C([O-])CN(CCN(CCc1ccc(NC(=O)[C@H](CCCCNC(=O)CCC(=O)NCCCC[C@H](NC(=O)N[C@@H](CCC(=O)O)C(=O)O)C(=O)O)NC(=O)CCCc2ccc(I)cc2)cc1)CCN(CC(=O)[O-])Cc1cccc(C(=O)[O-])n1)Cc1cccc(C(=O)[O-])n1.[111In+3] [[^111In]In-Neunpa-2]", "ASSAY_SYSTEM": "LNCaP tumor-transplanted mouse", "Brain [% ID/g]": 0.08}
{"COMPOUND": "O=C([O-])CN1CCN(C(CCC(=O)NCCCC[C@H](NC(=O)N[C@@H](CCC(=O)O)C(=O)O)C(=O)O)C(=O)[O-])CCN(CC(=O)[O-])CCN(C(CCC(=O)Nc2ccccc2)C(=O)[O-])CC1.[111In+3] (some centres unmarked) [[^111In]In-PSMA-DB, reference compound]", "ASSAY_SYSTEM": "LNCaP tumor-transplanted mouse", "Brain [% ID/g]": 0.07}
{"COMPOUND": "O=C([O-])CN1CCN(C(CCC(=O)NCCCC[C@H](NC(=O)N[C@@H](CCC(=O)O)C(=O)O)C(=O)O)C(=O)[O-])CCN(CC(=O)[O-])CCN(C(CCC(=O)N[C@@H](CCCCNC(=O)CCCc2ccc(I)cc2)C(=O)O)C(=O)[O-])CC1.[111In+3] (some centres unmarked) [[^111In]In-PSMA-DA1]", "ASSAY_SYSTEM": "LNCaP tumor-transplanted mouse", "Brain [% ID/g]": 0.36}
{"COMPOUND": "O=C([O-])CN(Cc1cccc(C(=O)[O-])n1)C[C@H](Cc1ccc(NC(=O)[C@H](CCCCNC(=O)CCC(=O)NCCCC[C@H](NC(=O)N[C@@H](CCC(=O)O)C(=O)O)C(=O)O)NC(=O)CCCc2ccc(I)cc2)cc1)N(CC(=O)[O-])Cc1cccc(C(=O)[O-])n1.[111In+3] [[^111In]In-Octapa-2]", "ASSAY_SYSTEM": "LNCaP tumor-transplanted mouse", "Brain [% ID/g]": 0.03}
{"COMPOUND": "O=C([O-])CN(CCN(CCc1ccc(NC(=O)CCCCCNC(=O)CCC(=O)NCCCC[C@H](NC(=O)N[C@@H](CCC(=O)O)C(=O)O)C(=O)O)cc1)CCN(CC(=O)[O-])Cc1cccc(C(=O)[O-])n1)Cc1cccc(C(=O)[O-])n1.[111In+3] [[^111In]In-Neunpa-1, reference compound]", "ASSAY_SYSTEM": "LNCaP tumor-transplanted mouse", "Brain [% ID/g]": 0.02}
{"COMPOUND": "O=C([O-])CN(Cc1cccc(C(=O)[O-])n1)C[C@H](Cc1ccc(NC(=O)[C@H](CCCCNC(=O)CCC(=O)NCCCC[C@H](NC(=O)N[C@@H](CCC(=O)O)C(=O)O)C(=O)O)NC(=O)COCCOCCOCC(=O)N[C@@H](CCCCNC(=O)CCCc2ccc(I)cc2)C(=O)O)cc1)N(CC(=O)[O-])Cc1cccc(C(=O)[O-])n1.[111In+3] [[^111In]In-Octapa-3]", "ASSAY_SYSTEM": "LNCaP tumor-transplanted mouse", "Brain [% ID/g]": 0.16}
{"COMPOUND": "O=C([O-])CN(Cc1cccc(C(=O)[O-])n1)C[C@H](Cc1ccc(NC(=O)CCCCCNC(=O)CCC(=O)NCCCC[C@H](NC(=O)N[C@@H](CCC(=O)O)C(=O)O)C(=O)O)cc1)N(CC(=O)[O-])Cc1cccc(C(=O)[O-])n1.[111In+3] [[^111In]In-Octapa-1, reference compound]", "ASSAY_SYSTEM": "LNCaP tumor-transplanted mouse", "Brain [% ID/g]": 0.04}
{"COMPOUND": "O=C(O)CC[C@H](NC(=O)N[C@@H](CCCCNC(=O)[C@H](Cc1ccc2ccccc2c1)NC(=O)[C@H]1CC[C@H](CNC(=O)CCC(C(=O)O)N2CCN(CC(=O)O)CCN(C(CCC(=O)N[C@@H](CCCCNC(=O)CCCc3ccc(I)cc3)C(=O)O)C(=O)O)CCN(CC(=O)O)CC2)CC1)C(=O)O)C(=O)O (some centres unmarked) [[^111In]In-PSMA-NAT-DA1, metal not drawn]", "ASSAY_SYSTEM": "LNCaP tumor-transplanted mouse", "Brain [% ID/g]": 0.27}
